From: patent US20210238260

- TARGET OF ASSAY: Factor X, P00742
- Sequence (P00742 whole entry, looked up): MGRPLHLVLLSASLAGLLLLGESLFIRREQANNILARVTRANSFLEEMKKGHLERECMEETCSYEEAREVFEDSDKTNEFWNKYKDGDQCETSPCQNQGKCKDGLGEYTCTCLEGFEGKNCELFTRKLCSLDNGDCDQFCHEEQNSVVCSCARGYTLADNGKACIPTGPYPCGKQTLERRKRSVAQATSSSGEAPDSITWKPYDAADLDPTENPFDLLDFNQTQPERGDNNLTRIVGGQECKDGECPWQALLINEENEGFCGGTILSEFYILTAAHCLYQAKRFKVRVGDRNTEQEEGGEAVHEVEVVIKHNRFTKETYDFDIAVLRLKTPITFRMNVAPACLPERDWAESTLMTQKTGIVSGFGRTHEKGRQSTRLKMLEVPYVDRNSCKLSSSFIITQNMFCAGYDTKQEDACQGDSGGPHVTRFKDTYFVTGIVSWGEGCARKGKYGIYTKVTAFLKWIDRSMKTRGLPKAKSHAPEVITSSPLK
For each record, write down the corresponding % of WT kcat/KM.

Some proteins with recorded % of WT kcat/KM:
PROTEIN	MEASURE NAME	DATA VALUE
FIXa-Y155F/R318Y/R338E/T343R/R403E (protein) chain 1: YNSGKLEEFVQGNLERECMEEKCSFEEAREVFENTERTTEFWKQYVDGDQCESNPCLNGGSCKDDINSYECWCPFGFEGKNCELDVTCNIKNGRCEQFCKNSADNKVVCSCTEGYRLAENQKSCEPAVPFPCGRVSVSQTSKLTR chain 2: VVGGEDAKPGQFPWQVVLNGKVDAFCGGSIVNEKWIVTAAHCVETGVKITVVAGEHNIEETEHTEQKRNVIRIIPHHNYNAAINKYNHDIALLELDEPLVLNSYVTPICIADKEYTNIFLKFGSGYVSGWGRVFHKGYSALVLQYLRVPLVDRATCLESTKFRIYNNMFCAGFHEGGRDSCQGDSGGPHVTEVEGTSFLTGIISWGEECAMKGKYGIYTKVSEYVNWIKEKTKLT	% of WT kcat/KM	563%
FIXa-R318Y/R338E/T412A (protein) chain 1: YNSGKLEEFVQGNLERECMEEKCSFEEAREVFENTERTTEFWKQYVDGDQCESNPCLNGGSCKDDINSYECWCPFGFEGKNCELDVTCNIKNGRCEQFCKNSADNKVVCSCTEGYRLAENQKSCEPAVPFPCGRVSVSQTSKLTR chain 2: VVGGEDAKPGQFPWQVVLNGKVDAFCGGSIVNEKWIVTAAHCVETGVKITVVAGEHNIEETEHTEQKRNVIRIIPHHNYNAAINKYNHDIALLELDEPLVLNSYVTPICIADKEYTNIFLKFGSGYVSGWGRVFHKGYSALVLQYLRVPLVDRATCLESTKFTIYNNMFCAGFHEGGRDSCQGDSGGPHVTEVEGTSFLTGIISWGEECAMKGKYGIYTKVSRYVNWIKEKAKLT	% of WT kcat/KM	661%
FIXa-K247N/N249S/R318Y/R338E/R403E/E410N (protein) chain 1: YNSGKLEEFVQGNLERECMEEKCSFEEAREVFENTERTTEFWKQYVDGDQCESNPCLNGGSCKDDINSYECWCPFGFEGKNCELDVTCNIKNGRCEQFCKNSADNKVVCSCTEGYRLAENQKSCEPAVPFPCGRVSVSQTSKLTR chain 2: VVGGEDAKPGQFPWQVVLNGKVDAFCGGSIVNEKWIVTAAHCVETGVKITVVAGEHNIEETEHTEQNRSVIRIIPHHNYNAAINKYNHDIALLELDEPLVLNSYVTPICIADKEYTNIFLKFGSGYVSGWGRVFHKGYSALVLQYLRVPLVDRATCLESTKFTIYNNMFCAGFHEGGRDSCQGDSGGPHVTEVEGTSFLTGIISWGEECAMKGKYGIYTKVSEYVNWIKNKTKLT	% of WT kcat/KM	341%
FIXa Y155F/K228N/K247N/N249S (protein) chain 1: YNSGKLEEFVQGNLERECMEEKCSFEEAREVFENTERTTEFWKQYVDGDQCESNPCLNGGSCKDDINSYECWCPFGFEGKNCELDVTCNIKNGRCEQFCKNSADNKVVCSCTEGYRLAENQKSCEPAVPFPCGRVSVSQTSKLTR chain 2: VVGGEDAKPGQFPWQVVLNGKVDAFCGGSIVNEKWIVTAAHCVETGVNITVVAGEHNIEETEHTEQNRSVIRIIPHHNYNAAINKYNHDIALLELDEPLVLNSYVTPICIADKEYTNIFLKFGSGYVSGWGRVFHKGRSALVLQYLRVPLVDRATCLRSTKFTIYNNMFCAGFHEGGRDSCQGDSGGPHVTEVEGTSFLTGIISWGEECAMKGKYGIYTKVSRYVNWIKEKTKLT	% of WT kcat/KM	115%
FIXa-D104N/K106S/Y155F/R318Y/R338E/R403E/E410N (mature FIX numbering) (protein) chain 1: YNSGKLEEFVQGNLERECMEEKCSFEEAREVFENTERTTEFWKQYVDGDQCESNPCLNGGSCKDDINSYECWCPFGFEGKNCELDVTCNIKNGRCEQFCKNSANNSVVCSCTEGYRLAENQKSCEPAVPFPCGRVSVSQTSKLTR chain 2: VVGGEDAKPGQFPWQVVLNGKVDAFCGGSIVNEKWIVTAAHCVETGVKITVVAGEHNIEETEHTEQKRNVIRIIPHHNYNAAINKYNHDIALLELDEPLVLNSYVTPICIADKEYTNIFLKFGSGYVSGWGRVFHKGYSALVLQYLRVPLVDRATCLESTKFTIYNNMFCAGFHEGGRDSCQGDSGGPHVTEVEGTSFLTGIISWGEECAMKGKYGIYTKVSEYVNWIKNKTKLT	% of WT kcat/KM	394%

Record % of WT kcat/KM per entry; entries follow.
1. FIXa-Y155F/K247N/N249S/R318Y/R338E/T343R/R403E/E410N (protein) chain 1: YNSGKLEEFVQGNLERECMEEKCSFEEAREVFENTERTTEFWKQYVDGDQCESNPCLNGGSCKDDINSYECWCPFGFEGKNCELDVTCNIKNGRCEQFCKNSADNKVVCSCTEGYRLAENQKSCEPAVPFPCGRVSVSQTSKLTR chain 2: VVGGEDAKPGQFPWQVVLNGKVDAFCGGSIVNEKWIVTAAHCVETGVKITVVAGEHNIEETEHTEQNRSVIRIIPHHNYNAAINKYNHDIALLELDEPLVLNSYVTPICIADKEYTNIFLKFGSGYVSGWGRVFHKGYSALVLQYLRVPLVDRATCLESTKFRIYNNMFCAGFHEGGRDSCQGDSGGPHVTEVEGTSFLTGIISWGEECAMKGKYGIYTKVSEYVNWIKNKTKLT
2. FIXa-R318Y/R338E/T343R/R403E (protein) chain 1: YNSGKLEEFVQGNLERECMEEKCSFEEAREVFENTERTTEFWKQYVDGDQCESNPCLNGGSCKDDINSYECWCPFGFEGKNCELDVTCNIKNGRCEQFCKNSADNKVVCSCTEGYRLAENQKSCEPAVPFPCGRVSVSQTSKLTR chain 2: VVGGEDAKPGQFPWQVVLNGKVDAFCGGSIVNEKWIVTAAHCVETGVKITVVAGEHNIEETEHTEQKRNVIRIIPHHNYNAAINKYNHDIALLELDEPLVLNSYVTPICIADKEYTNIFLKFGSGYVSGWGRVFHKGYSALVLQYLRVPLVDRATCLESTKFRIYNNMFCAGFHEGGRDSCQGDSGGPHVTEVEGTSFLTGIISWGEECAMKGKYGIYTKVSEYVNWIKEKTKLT

1. 864%
2. 357%
